- method_summary: Induction of apoptosis in mouse RAW264.7 cells assessed as viable cells at 1.5 uM by Annexin V-FITC/PI staining based flow cytometric analysis (reference value: 96.4%)
- Format: toxicity, cell-based
- run_conditions: read-out: Activity
measurement_kind: viability at 1.5 µM (%)
Answers are plain numbers, in %.

Fill blank: measured viability at 1.5 µM of the compound CN1CCN(c2ccc(/C=C3\CCc4ccc(Br)cc4C3=O)nc2)CC1 is ____.
94.4

----------
- method_summary: Cytotoxicity against mouse RAW264.7 cells assessed as survival rate at 2.5 uM incubated overnight by CCK-8 assay relative to control
- Format: toxicity, cell-based
- run_conditions: read-out: Survival
Strictly below 90% in viability at 2.5 µM: 1. Otherwise: 0.

The examples below pair each entry with its known result.
[[record]]
compound_structure = "CN1CCN(c2ccc(/C=C3\\CCc4ccc(Br)cc4C3=O)cc2)CC1"
classification = 0

[[record]]
compound_structure = "CN1CCN(c2ccc(/C=C3\\CCc4cc(F)ccc4C3=O)cn2)CC1"
classification = 0

[[record]]
compound_structure = "O=C1/C(=C/c2ccc(N3CCOCC3)nc2)CCc2cc(F)ccc21"
classification = 1


Field: below-cutoff. Rule: recorded viability at 2.5 µM strictly less than 90%. Subject: COc1ccc2c(c1)CC/C(=C\c1ccc(N3CCOCC3)nc1)C2=O
0

----------
Would you mind telling me the reported inhibition at 2.5 µM of each entry?
- System: RAW264.7
- method_summary: Anti-inflammatory activity in mouse RAW264.7 cells assessed as inhibition of LPS-induced TNF-alpha production at 2.5 uM pretreated with compound for 2 hrs followed by LPS addition and measured after 22 hrs by ELISA relative to control
- Assay type: functional
- run_conditions: time 24 hrs
Numbers only, in %.

[[record]]
compound_structure = "O=C1/C(=C/c2ccc(-n3ccnc3)cc2)CCc2ccc(F)cc21"
number = 19

[[record]]
compound_structure = "COc1ccc2c(c1)C(=O)/C(=C/c1ccc(-n3ccnc3)cc1)CC2"
number = 39.8

[[record]]
compound_structure = "O=C1/C(=C/c2ccc(N3CCOCC3)cc2)CCc2ccc(Br)cc21"
number = 22.4


Report inhibition at 2.5 µM for every entry below.
1. CN1CCN(c2ccc(/C=C3\CCc4ccc(O)cc4C3=O)nc2)CC1
2. COc1ccc2c(c1)C(=O)/C(=C/c1ccc(N3CCN(C)CC3)cc1)CC2
3. O=C1/C(=C/c2ccc(N3CCOCC3)cc2)CCc2ccc(O)cc21
4. CN1CCN(c2ccc(/C=C3\CCc4ccc(F)cc4C3=O)cc2)CC1
5. CN1CCN(c2ccc(/C=C3\CCc4ccc(F)cc4C3=O)nc2)CC1
6. CN1CCN(c2ccc(/C=C3\CCc4cc(F)ccc4C3=O)cn2)CC1

41.6
33.6
32.3
37.3
30.5
32.8

----------
- method_summary: Induction of apoptosis in mouse RAW264.7 cells assessed as viable cells at 6.0 uM by Annexin V-FITC/PI staining based flow cytometric analysis (reference value: 96.4%)
- Type: toxicity, cell-based
- run_conditions: read-out: Activity
measurement_kind: viability at 6 µM (%)
Answers are plain numbers, in %.

Fill blank: measured viability at 6 µM of the molecule CN1CCN(c2ccc(/C=C3\CCc4ccc(Br)cc4C3=O)nc2)CC1 is ____.
91.6

----------
- method_summary: Cytotoxicity against mouse RAW264.7 cells assessed as survival rate at 2.5 uM incubated overnight by CCK-8 assay relative to control
- Assay type: toxicity, cell-based
- run_conditions: read-out: Survival
Strictly below 90% in viability at 2.5 µM: class 1. Otherwise: class 0.

[[record]]
compound_structure = "CN1CCN(c2ccc(/C=C3\\CCc4cc(Br)ccc4C3=O)nc2)CC1"
classification = "class 0"

[[record]]
compound_structure = "CN1CCN(c2ccc(/C=C3\\CCc4ccc(Br)cc4C3=O)nc2)CC1"
classification = "class 0"

[[record]]
compound_structure = "O=C1/C(=C/c2ccc(N3CCOCC3)cc2)CCc2ccc(O)cc21"
classification = "class 1"


Field: below-cutoff. Rule: recorded viability at 2.5 µM strictly less than 90%. Subject: O=C1/C(=C/c2ccc(N3CCOCC3)nc2)CCc2ccc(Br)cc21
class 0

Next record, please: O=C1/C(=C/c2ccc(N3CCOCC3)cc2)CCc2cc(F)ccc21
class 1

Next record, please: CN1CCN(c2ccc(/C=C3\CCc4ccc(F)cc4C3=O)nc2)CC1
class 0
